Cited source for all entries: the supplement of paper PMC9112550

system: Escherichia coli TOP10; test: shrunken log2 fold change of peptide-encoding DNA abundance (4.5 h post-induction vs induction); higher = less antimicrobial activity (less host growth inhibition); conditions: time post-induction: 4.5 h; library: site-saturation at positions 5, 18, 19, 20;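 further: peptides expressed intracellularly from a pBAD plasmid library in pooled LB shake-flask culture, induced with 0.3% L-arabinose, DNA abundance read by NGS, three biological replicates, DESeq2 with apeglm shrinkage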

Entry Sequence: RRIRMRPPRLPRPRPRPMALPRP
Measured On: Escherichia coli TOP10
shrunken log2 fold change: 0.517
--
Entry Sequence: RRIRCRPPRLPRPRPRPRDAPRP
Measured On: Escherichia coli TOP10
shrunken log2 fold change: 0.56
--
Entry Sequence: RRIRMRPPRLPRPRPRPECVPRP
Measured On: Escherichia coli TOP10
shrunken log2 fold change: 2.97
--
Entry Sequence: RRIRIRPPRLPRPRPRPCLCPRP
Measured On: Escherichia coli TOP10
shrunken log2 fold change: 2.05
--
Entry Sequence: RRIRERPPRLPRPRPRPTCCPRP
Measured On: Escherichia coli TOP10
shrunken log2 fold change: -0.0839
--
Entry Sequence: RRIRYRPPRLPRPRPRPRRHPRP
Measured On: Escherichia coli TOP10
shrunken log2 fold change: -0.103
--
Entry Sequence: RRIRRRPPRLPRPRPRPILVPRP
Measured On: Escherichia coli TOP10
shrunken log2 fold change: -0.106
--
Entry Sequence: RRIRTRPPRLPRPRPRPECLPRP
Measured On: Escherichia coli TOP10
shrunken log2 fold change: 0.105
--
Entry Sequence: RRIRYRPPRLPRPRPRPRAPPRP
Measured On: Escherichia coli TOP10
shrunken log2 fold change: 0.271
--
Entry Sequence: RRIRFRPPRLPRPRPRPYAHPRP
Measured On: Escherichia coli TOP10
shrunken log2 fold change: -0.18
--
Entry Sequence: RRIRKRPPRLPRPRPRPKLTPRP
Measured On: Escherichia coli TOP10
shrunken log2 fold change: 0.104
--
Entry Sequence: RRIRERPPRLPRPRPRPNLGPRP
Measured On: Escherichia coli TOP10
shrunken log2 fold change: -0.161
--
Entry Sequence: RRIRVRPPRLPRPRPRPQFKPRP
Measured On: Escherichia coli TOP10
shrunken log2 fold change: -0.576
--
Entry Sequence: RRIRDRPPRLPRPRPRPSIRPRP
Measured On: Escherichia coli TOP10
shrunken log2 fold change: -0.103
--
Entry Sequence: RRIRTRPPRLPRPRPRPRRRPRP
Measured On: Escherichia coli TOP10
shrunken log2 fold change: 0.411
--
Entry Sequence: RRIRFRPPRLPRPRPRPCMRPRP
Measured On: Escherichia coli TOP10
shrunken log2 fold change: 0.0466
--
Entry Sequence: RRIRLRPPRLPRPRPRPVNDPRP
Measured On: Escherichia coli TOP10
shrunken log2 fold change: -0.52
--
Entry Sequence: RRIRVRPPRLPRPRPRPPVEPRP
Measured On: Escherichia coli TOP10
shrunken log2 fold change: 0.424
--
Entry Sequence: RRIRYRPPRLPRPRPRPAGCPRP
Measured On: Escherichia coli TOP10
shrunken log2 fold change: -0.177
--
Entry Sequence: RRIRTRPPRLPRPRPRPYNNPRP
Measured On: Escherichia coli TOP10
shrunken log2 fold change: -0.429
--
Entry Sequence: RRIRNRPPRLPRPRPRPKCGPRP
Measured On: Escherichia coli TOP10
shrunken log2 fold change: -0.0686
--
Entry Sequence: RRIRQRPPRLPRPRPRPTSWPRP
Measured On: Escherichia coli TOP10
shrunken log2 fold change: -0.00172
--
Entry Sequence: RRIRGRPPRLPRPRPRPVYFPRP
Measured On: Escherichia coli TOP10
shrunken log2 fold change: -0.0244
--
Entry Sequence: RRIRGRPPRLPRPRPRPNRVPRP
Measured On: Escherichia coli TOP10
shrunken log2 fold change: 0.0309
--
Entry Sequence: RRIRLRPPRLPRPRPRPSYSPRP
Measured On: Escherichia coli TOP10
shrunken log2 fold change: -0.589
--
Entry Sequence: RRIRQRPPRLPRPRPRPYWMPRP
Measured On: Escherichia coli TOP10
shrunken log2 fold change: 0.0425
--
Entry Sequence: RRIRHRPPRLPRPRPRPCGSPRP
Measured On: Escherichia coli TOP10
shrunken log2 fold change: -0.153
--
Entry Sequence: RRIRNRPPRLPRPRPRPYSPPRP
Measured On: Escherichia coli TOP10
shrunken log2 fold change: -0.276
--
Entry Sequence: RRIRIRPPRLPRPRPRPTRLPRP
Measured On: Escherichia coli TOP10
shrunken log2 fold change: 0.0583
--
Entry Sequence: RRIRTRPPRLPRPRPRPELAPRP
Measured On: Escherichia coli TOP10
shrunken log2 fold change: 0.188
--
Entry Sequence: RRIRPRPPRLPRPRPRPQQWPRP
Measured On: Escherichia coli TOP10
shrunken log2 fold change: 0.182
--
Entry Sequence: RRIRMRPPRLPRPRPRPDDTPRP
Measured On: Escherichia coli TOP10
shrunken log2 fold change: 2.17
